Target: human glucagon receptor (human, UniProt P47871 26-477)
Sequence (P47871 26-477): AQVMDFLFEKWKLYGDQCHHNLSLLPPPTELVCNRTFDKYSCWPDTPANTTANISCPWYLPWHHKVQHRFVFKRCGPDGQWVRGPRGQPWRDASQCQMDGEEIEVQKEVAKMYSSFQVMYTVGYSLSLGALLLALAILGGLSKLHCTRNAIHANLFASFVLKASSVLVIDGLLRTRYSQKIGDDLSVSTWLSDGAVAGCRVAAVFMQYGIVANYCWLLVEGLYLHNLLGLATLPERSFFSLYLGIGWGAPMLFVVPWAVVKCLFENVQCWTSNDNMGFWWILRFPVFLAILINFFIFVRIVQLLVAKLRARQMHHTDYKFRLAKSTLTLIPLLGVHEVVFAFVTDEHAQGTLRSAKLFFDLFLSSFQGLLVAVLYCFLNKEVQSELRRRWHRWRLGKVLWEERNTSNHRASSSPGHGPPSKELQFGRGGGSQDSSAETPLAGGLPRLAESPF
Test: cell-based or functional assay
Where no end group is shown, it is not given here. [ ]: non-standard residue; d: D form. Aib = CC(C)(N)C(=O)O
Here, each record is paired with measured hGcgR CRE Luc EC50 (pM) data.

- binder: "H[Aib]HGTFTSDYSYLLEKQAA[Aib]EFVQWLLEGGPSSGAPPPS-NH2 (not fully specified (residue 16); printed as H-Aib-HGTFTSDYSYLLE-K[(2S)-2-amino-6-[[(2S)-2-amino-6-[[(4S)-4-carboxy-4-(19-carboxynonadecanoylamino)butanoyl]amino]hexanoyl]amino]hexanoyl]-QAA-Aib-EFVQWLLEGGPSSGAPPPS-NH2) [Compound No. 42]"
  hGcgR CRE Luc EC50 (pM): "8 pM"

Now for another entry.
Prompt: For H[Aib]HGTFTSDYSIYLEKQYA[Aib]EFVQWLLEGGPSSGAPPPS-NH2 (not fully specified (residue 16); printed as H-Aib-HGTFTSDYSIYLE-K[(2S)-2-amino-6-[[(2S)-2-amino-6-[[(4S)-4-carboxy-4-(19-carboxynonadecanoylamino)butanoyl]amino]hexanoyl]amino]hexanoyl]-QYA-Aib-EFVQWLLEGGPSSGAPPPS-NH2) [Compound No. 24] , write its hGcgR CRE Luc EC50 (pM).
Response: 13.1 pM
